// data source = patent US9790228B2

Observed IC50 for p110γ (Homo sapiens (Human), UniProt P48736), reported per entry below.

Consider the reported IC50 for these compounds:
{"entry_smiles": "CN1CCN(c2ncccc2Cn2nc(-c3cc(O)cc(F)c3)c3c(N)ncnc32)CC1", "target_system": "p110γ (Homo sapiens (Human), UniProt P48736)", "experimental_result": "> 1000 nM"}
{"entry_smiles": "CC(=O)Nc1nc2ccc(-c3nn(Cc4cc5ccccc5nc4-c4ccccc4)c4ncnc(N)c34)cc2s1", "target_system": "p110γ (Homo sapiens (Human), UniProt P48736)", "experimental_result": "< 100 nM"}
{"entry_smiles": "Nc1ncnc2ccc(-c3nn(Cc4cc5ccccc5nc4N4CCOCC4)c4ncnc(N)c34)cc12", "target_system": "p110γ (Homo sapiens (Human), UniProt P48736)", "experimental_result": "< 100 nM"}

# evaluate next
Ask: Item CC(=O)Nc1nc2ccc(-c3nn(Cc4cc5ccccc5nc4N4CCOCC4)c4ncnc(N)c34)cc2s1 with p110γ (Homo sapiens (Human), UniProt P48736) - IC50?
Result: < 100 nM
